Source of measurements: PubChem BioAssay (NCI)

Test system: T-47D breast
TEST METHOD NOTES: NCI-60 one-dose screen, 48 h
CONDITION CONTEXT: 10 µM unless noted
This is part of a sample that, as a whole, favours compounds with a hit. Of some 83,000 tested, about 20% had one in any assay. Calls of active or inactive are those of the source. Rule for the calls: active = growth percent below 10; inactive = the rest.
Choose one outcome from this list and give only that: active, inactive

Known results for molecules:
MOLECULE: COc1cc2c(cc1OC)C(=O)/C(=C/c1cccc(OCC(=O)c3ccccc3)c1)C2
ASSAY TARGET: T-47D breast
CLASS NAME: inactive

MOLECULE: COc1ccc2nc(N/N=C(\C)c3ccccn3)cc(C)c2c1
ASSAY TARGET: T-47D breast
CLASS NAME: active

MOLECULE: COc1cc(C2CC(C3C(=O)N(C)C(=O)N(C)C3=O)=NN2C=O)cc(OC)c1OC (stereo not drawn)
ASSAY TARGET: T-47D breast
CLASS NAME: inactive

MOLECULE: COc1cc(/C=C/C(=O)C(C(=O)/C=C/c2ccc(OC(=O)CCNC34CC5CC(CC(C5)C3)C4)c(OC)c2)C(=O)CCNC23CC4CC(CC(C4)C2)C3)ccc1OC(=O)CCNC12CC3CC(CC(C3)C1)C2 (stereo not drawn)
ASSAY TARGET: T-47D breast
CLASS NAME: inactive

MOLECULE: COc1ccc(C2=NN(C=O)C(c3cccc(Nc4ccnc5cc(Cl)ccc45)c3)C2)cc1 (stereo not drawn)
ASSAY TARGET: T-47D breast
CLASS NAME: inactive

MOLECULE: CCCCc1n(Cc2ccc3ccccc3c2)cc[n+]1Cc1ccc2ccccc2c1
ASSAY TARGET: T-47D breast
CLASS NAME: active

I would be grateful if you could indicate the recorded call for Nc1nc2c(c(=O)[nH]1)C1(C(=O)Nc3ccccc31)c1c(nc(N)[nH]c1=O)N2 . inactive

Any idea what this test logged for O=C(COc1ccc(/C=C2\Oc3ccc4ccccc4c3C2=O)cc1)c1ccc(Cl)cc1 ? inactive

What call does the record list for Cc1[nH]cnc1/C=C1\SC(N2CCCCC2)=NC1=O ? inactive

Please let me know the test result on file for Fc1ccccc1C1c2ccccc2-c2nccn21 (stereo not drawn) . inactive

Recorded test outcome, item Nc1ccn(C2O[C@H](CO)[C@@H](O)[C@@H]2O)c(=O)n1 (stereo partly drawn) inactive

Could you check what this test reported for CCOc1nc(-c2ccco2)n2nc(-c3ccco3)cc2n1 ? inactive

# outcome recorded in this test, key = C=C1CC[C@@H]2[C@](C)(COC(C)=O)[C@H](OC(C)=O)CC[C@@]2(C)[C@@H]1CC(NCc1ccccc1)C1=CCOC1=O (stereo partly drawn) inactive

###

System: SF-295 CNS
TEST METHOD NOTES: NCI-60 one-dose screen, 48 h
CONDITION CONTEXT: 10 µM unless noted
The panel holds about 83,000 compounds, 20% with a hit somewhere; the sample as a whole holds those more often. The source made the active and inactive calls. How the source made its calls: active means growth percent below 10; inactive means the rest.
Result category, one only: active, inactive

COMPOUND: Cc1[nH]ccc2cc3nc4ccccc4c3cc12
ASSAY TARGET: SF-295 CNS
CLASS NAME: inactive

COMPOUND: COc1cc(Cl)cc(-c2nn(-c3cccc(NC(=O)c4cc(C(F)(F)F)cc(C(F)(F)F)c4)c3)cc2-c2ccncc2)c1
ASSAY TARGET: SF-295 CNS
CLASS NAME: inactive

COMPOUND: C/C(=C\CCc1ccsc1)CC/C=C(\C)CCCN1CCSCC1
ASSAY TARGET: SF-295 CNS
CLASS NAME: inactive

COMPOUND: O=C(CNC(=O)c1cccc2ccccc12)Nc1ccccc1Cc1ccccc1
ASSAY TARGET: SF-295 CNS
CLASS NAME: inactive

COMPOUND: CNNc1ncnc2c1cnn2-c1ccc(S(N)(=O)=O)cc1
ASSAY TARGET: SF-295 CNS
CLASS NAME: inactive

COMPOUND: O=CN1N=C(c2ccc(Nc3ccnc4cc(Cl)ccc34)cc2)CC1c1ccc(Cl)cc1 (configuration not stated)
ASSAY TARGET: SF-295 CNS
CLASS NAME: active

COMPOUND: C=CCNC(=O)/C(=C/c1cccc([N+](=O)[O-])c1)NC(=O)c1ccccc1
ASSAY TARGET: SF-295 CNS
CLASS NAME: inactive

COMPOUND: CSc1nc2nc3c(nc2c(=O)n1C)C(=O)c1ccccc1C3=O
ASSAY TARGET: SF-295 CNS
CLASS NAME: active

COMPOUND: O=c1[nH]cc(Nc2cc(Cl)c3nonc3c2[N+](=O)[O-])c(=O)[nH]1
ASSAY TARGET: SF-295 CNS
CLASS NAME: active

COMPOUND: O=C(Nc1cccc(Cl)c1)Nc1cccc(Cl)c1
ASSAY TARGET: SF-295 CNS
CLASS NAME: inactive

Please state the recorded outcome for this compound: COc1cccc(C2=NN(C(C)=O)C(c3cc(OC)c(OC)c(OC)c3)C2)c1 (configuration not stated) inactive

Returns: the outcome recorded for COc1cc(/C=N/OC(=O)Nc2ccccc2)cc(OC)c1OC in this assay. inactive

Call for entry Cc1ccc(C(NC(=O)c2ccccc2)c2ccc3cccnc3c2O)cc1 (configuration not stated) : inactive

###

System: ACHN renal
TEST METHOD NOTES: NCI-60 one-dose screen, 48 h
CONDITION CONTEXT: 10 µM unless noted
About 83,000 compounds went through this panel and 20% of them were active in at least one assay; those are over-represented in the sample as a whole. Activity calls are given as the source filed them. The calls were made as follows: active = growth percent below 10; inactive = the rest.
Allowed answers: active, inactive

COMPOUND: [N-]=[N+]=NCc1ncc(-c2ccc(C(F)(F)F)cc2)c(NC2CCCCCC2)n1
ASSAY TARGET: ACHN renal
CLASS NAME: inactive
//
COMPOUND: O=C(COc1cccc(/C=C2\Oc3ccc4ccccc4c3C2=O)c1)c1ccc([N+](=O)[O-])cc1
ASSAY TARGET: ACHN renal
CLASS NAME: inactive

What did the test return for CC1CN(/N=C/c2ccc([N+](=O)[O-])o2)C(=N)O1 (stereo unspecified) ? inactive

# lookup: test call for O=C(CC1Sc2ccccc2NC1=O)NNc1cccc(Cl)c1Cl (stereo unspecified) inactive

Hey, what did the test say about COc1cc(C2CC(C3C(=O)N(C)C(=O)N(C)C3=O)=NN2c2cc(Cl)cc(Cl)c2)cc(OC)c1OC (stereo unspecified) ? inactive

State the result this test recorded for c1ccc(CN=C(NCc2ccccc2)NCc2ccccc2)cc1 . inactive

Could you kindly confirm the outcome this assay logged for CC(=O)Nc1ccc(C(=O)COc2cccc(/C=C3\CCc4ccccc4C3=O)c2)cc1 ? inactive

What call does the record list for O=C(Nc1nc2c(C(F)(F)F)cccc2s1)c1cc(Cl)ccc1O ? active

###

Test system: HS 578T breast
TEST METHOD NOTES: NCI-60 one-dose screen, 48 h (100 = growth as untreated, 0 = no growth, -100 = all killed)
CONDITION CONTEXT: 10 µM unless noted
About 83,000 compounds went through this panel and 20% of them were active in at least one assay; those are over-represented in the sample as a whole.
Rule for this label: fulfilled means growth is less than 70%; not fulfilled means growth is at least 70%.

SMILES TEXT: COc1cc(-c2n[nH]nc2-c2ccccn2)cc(OC)c1OC
ASSAY TARGET: HS 578T breast
CLASS NAME: not fulfilled

Quick check: growth of O=C(c1ccc(Cl)cc1)c1ccc(Cl)cc1 under 70%? not fulfilled

hey, is growth for O=C(O)C1CCN(S(=O)(=O)c2ccc(-c3ccccc3)cc2)CC1 lower than 70% or not? not fulfilled

is_below(growth, 70%) for CCOc1cc(/C=C/C(=O)C(C(=O)/C=C/c2ccc(OC(=O)CNc3nc4ccccc4[nH]3)c(OCC)c2)C(=O)CNc2nc3ccccc3[nH]2)ccc1OC(=O)CNc1nc2ccccc2[nH]1 ? fulfilled

Strictly below 70%: is that where growth of Oc1c(Cl)cc(Cl)c(Cl)c1Cc1c(O)c(Cl)cc(Cl)c1Cl sits? fulfilled

Here's an entry: CC(=O)Nc1ccc(C(=O)COc2cccc(/C=C3\CCc4ccccc4C3=O)c2)cc1 . Is its growth below 70%? not fulfilled

###

Test system: NCI-H322M lung
TEST METHOD NOTES: NCI-60 one-dose screen, 48 h
CONDITION CONTEXT: 10 µM unless noted
About 83,000 compounds went through this panel and 20% of them were active in at least one assay; those are over-represented in the sample as a whole. The source made the active and inactive calls. How the source made its calls: active means growth percent below 10; inactive means the rest.
# valid calls are active, inactive; nothing else

Worked cases, answers included:
COMPOUND: O=Nc1c2cccnc2n2nnc3ccc(Cl)cc3c12
CLASS NAME: inactive
--
COMPOUND: Oc1ccccc1/C=N/N1CCCCCC1
CLASS NAME: inactive

Write down the call the test reported for this compound. Item: C[N+]1(C)C2CC[C@@H]1CC(OC(=O)C(O)c1ccccc1)C2 (some centres undefined) inactive

Query: recorded result category for O=C(O)CCC(=O)OC[C@@H](NC(=O)C(Cl)Cl)[C@H](O)c1ccc([N+](=O)[O-])cc1 in this test inactive
